Biological target: PD-1 (PDCD1) (Homo sapiens (Human)) (UniProt Q15116)
Sequence (Q15116 21-288): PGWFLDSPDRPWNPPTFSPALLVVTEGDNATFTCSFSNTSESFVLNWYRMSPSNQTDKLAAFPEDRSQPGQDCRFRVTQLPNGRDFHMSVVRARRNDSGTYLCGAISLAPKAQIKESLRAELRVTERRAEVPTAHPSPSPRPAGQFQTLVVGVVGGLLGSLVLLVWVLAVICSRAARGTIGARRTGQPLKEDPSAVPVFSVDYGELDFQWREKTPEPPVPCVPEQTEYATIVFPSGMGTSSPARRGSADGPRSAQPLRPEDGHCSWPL
Assay: cell-based or functional assay
Parameter: IFN gamma levels pg/mL (MLR) (pg/mL)

PD-L2 H15Q/T47A IgV-Fc (Fc fusion, not shown: a dimerising Fc or GST) LFTVTVPKELYIIEQGSNVTLECNFDTGSHVNLGAITASLQKVENDASPHRERATLLEEQLPLGKASFHIPQVQVRDEGQYQCIIIYGVAWDYKYLTLKVKA: 1640
PD-L2 H15Q/S39I/E44D/Q72H/V75G/R76G/Q82R/V89D IgV-Fc (Fc fusion, not shown: a dimerising Fc or GST) LFTVTVPKELYIIEQGSNVTLECNFDTGSHVNLGAITAILQKVDNDTSPHRERATLLEEQLPLGKASFHIPHVQGGDEGQYRCIIIYGDAWDYKYLTLKVKA: 941
PD-L2 H15Q IgV-Fc (Fc fusion, not shown: a dimerising Fc or GST) LFTVTVPKELYIIEQGSNVTLECNFDTGSHVNLGAITASLQKVENDTSPHRERATLLEEQLPLGKASFHIPQVQVRDEGQYQCIIIYGVAWDYKYLTLKVKA: 1820
PD-L2 Q82R/V89D IgV-Fc (Fc fusion, not shown: a dimerising Fc or GST) LFTVTVPKELYIIEHGSNVTLECNFDTGSHVNLGAITASLQKVENDTSPHRERATLLEEQLPLGKASFHIPQVQVRDEGQYRCIIIYGDAWDYKYLTLKVKA: 1620

[A] PD-L2 S67L/V89D IgV-Fc (Fc fusion, not shown: a dimerising Fc or GST) LFTVTVPKELYIIEHGSNVTLECNFDTGSHVNLGAITASLQKVENDTSPHRERATLLEEQLPLGKALFHIPQVQVRDEGQYQCIIIYGDAWDYKYLTLKVKA
[B] PD-L2 G28V/Q72H/R76G/I86T IgV-Fc (Fc fusion, not shown: a dimerising Fc or GST) LFTVTVPKELYIIEHGSNVTLECNFDTVSHVNLGAITASLQKVENDTSPHRERATLLEEQLPLGKASFHIPHVQVGDEGQYQCIITYGVAWDYKYLTLKVKA
Lookup: Lower IFN gamma levels pg/mL (MLR): A or B ? Kindly state the label of the option you pick.
Found: A
(A: 1230 pg/mL, B: 1780 pg/mL)
